Data provenance is PubChem BioAssay (NCI).

# Tested on: SF-268 CNS
# protocol: NCI-60 one-dose screen, 48 h (100 = growth as untreated, 0 = no growth, -100 = all killed)
# setup.conditions: 10 µM unless noted
# Procedure: Cells are grown in 96 well plates and exposed to the test compound for 48 hours. Compounds are tested at a single concentration, which is 10^-5 M for most compounds. The reported endpoint is percent growth (GI% or GIPRCNT), where numbers from 0 - 100% represent growth inhibition, and numbers from -100% - 0 represent cell death. For example, a value of 40 represents 60% growth inhibition. A value of 0 means no net growth occurred over the course of the experiment. […]
The panel holds about 83,000 compounds, 20% with a hit somewhere; the sample as a whole holds those more often. Calls of active or inactive are those of the source. How the source made its calls: active means growth percent below 10; inactive means the rest.
readout.name: growth

Examples with answers:
• CN(C)CCCC1(c2ccc(F)cc2)OCc2cc(-c3cncc4ccccc34)ccc21 (stereo not given) = 49.5% (inactive)
• COc1ccccc1NC(=O)Cn1cc(CN2CCN(c3ccnc4cc(Cl)ccc34)CC2)nn1 = 84% (inactive)
• COc1ccc(-c2nc(SCC(C)C)nc(N/N=C\c3ccc(F)cc3)c2C#N)cc1 = 86.6% (inactive)
• CN([O-])c1nc(N(C)[O-])nc(N2CCOCC2)n1.CN([O-])c1nc(N(C)[OH2+])nc(N2CCOCC2)n1.[Fe+3] = -14.2% [100 µM] (active)
• CC(C)NC1CCC(Nc2ccnc3cc(Cl)ccc23)CC1 (stereo not given) = 99.6% (inactive)
• COc1ccc(-c2nnc3n(C)c(=O)c4ccccc4n23)cc1N = 55.8% (inactive)
• COP(=O)(OC)C(C)(C)CC(=O)CC(C#N)(C#N)C(C#N)C#N = 98% (inactive)
• CCOc1nc(-c2ccccc2)cc2c(O)c(C(=O)NN)[nH]c(=O)c12 = 86.2% (inactive)

Each of the following entries comes with a recorded value; kindly state growth for each.
1. C/C(=N\NC(=O)c1ccccc1O)c1cccc(/C(C)=N/NC(=O)c2ccccc2O)n1
2. CCOC(=O)c1cc2c(=O)oc3ccccc3c2oc1=O

a:
31.8% (inactive)
108% (inactive)
